Recorded values, source ChEMBL document CHEMBL4261585.

Would you kindly list MIC for each of these compounds?
System: Mycolicibacterium fortuitum
Experiment: Antimycobacterial activity against Mycobacterium fortuitum by pesto blue-dye based broth microdilution assay
Format: functional

Consider the reported MIC for these compounds:
N#Cc1ccc(/C=C/c2nc3ccccc3c(=O)n2-c2cccc(OCc3cn(Cc4ccc(Br)cc4)nn3)c2)cc1 = > 64 µg/mL
Cc1nc2ccccc2c(=O)n1-c1cccc(OCc2cn(-c3ccc(C(=O)O)cc3)nn2)c1 = > 64 µg/mL
N#Cc1ccc(/C=C/c2nc3ccccc3c(=O)n2-c2ccc(OCc3cn(Cc4ccc(Br)cc4)nn3)cc2)cc1 = > 64 µg/mL

Report MIC for each item below.
1. N#Cc1ccc(/C=C/c2nc3ccccc3c(=O)n2-c2cccc(OCc3cn(-c4ccc(C(F)(F)F)cc4)nn3)c2)cc1
2. Cc1nc2ccccc2c(=O)n1-c1cccc(-n2cc(-c3ccccc3)nn2)c1
3. Cc1cc(-n2cc(COc3cccc(-n4c(C)nc5ccccc5c4=O)c3)nn2)cc(C)c1C
4. COc1ccc(-n2cc(COc3cccc(-n4c(/C=C/c5ccc(C#N)cc5)nc5ccccc5c4=O)c3)nn2)cc1
5. O=c1c2ccccc2nc(/C=C/c2ccc(Cl)cc2)n1-c1cccc(-n2cc(-c3ccccc3)nn2)c1

Reply:
1: > 64 µg/mL; 2: > 64 µg/mL; 3: > 64 µg/mL; 4: > 64 µg/mL; 5: > 64 µg/mL
